- assay.protocol: in vitro
- run.parameters: human, Caco-2
property.name: Papp A→B (×10⁻⁶ cm/s)
Form entry: value (×10⁻⁶ cm/s) — number only.

So what does the record say about Papp A→B for N#C[C@@H]1CSCN1C(=O)CNC(=O)c1ccnc2ccc(N3CC4CC(C3)O4)cc12 ?
0.57

----------
- assay.protocol: Kinetic solubility
- run.parameters: kinetic from dmso stock, Solubility, kinetic solubility; n = 1 or average of n = 2-3
Give log10 solubility for every item shown.
Note the log scale: values are log10 of solubility expressed in µM.

Return reported log10 solubility; argument: N#C[C@@H]1CSCN1C(=O)CNC(=O)c1ccnc2ccc(N3CC(F)(C(F)(F)F)C3)cc12
1.52

Which log10 solubility value is on record for N#C[C@@H]1CSCN1C(=O)CNC(=O)c1ccnc2ccc(N3CC(F)(F)C3)cc12 ?
1.80

# input compound: N#C[C@@H]1CSCN1C(=O)CNC(=O)c1ccnc2ccc(N3CC4C(C3)C4(F)F)cc12 (some centres unmarked) ; wanted: its log10 solubility
0.26

Quick one: log10 solubility for CCC1(OC)CCN(c2ccc3nccc(C(=O)NCC(=O)N4CSC[C@H]4C#N)c3c2)CC1 ?
2.60

So what's the measured log10 solubility for this one? CC(F)(F)CC1CN(c2ccc3nccc(C(=O)NCC(=O)N4CSC[C@H]4C#N)c3c2)C1
1.59

Recorded log10 solubility of CC[C@H]1COCCN1c1ccc2nccc(C(=O)NCC(=O)N3CSC[C@H]3C#N)c2c1 , please.
2.85

----------
- assay.protocol: Kinetic solubility
- run.parameters: kinetic from dmso stock, Solubility, kinetic solubility; n = 1 or average of n = 2-3
Task for the reader: assign each of the following molecules its reported solubility.
Please reply with the bare figure in µM and do not write the unit itself.

Which solubility reading was recorded for the molecule N#C[C@@H]1CSCN1C(=O)CNC(=O)c1ccnc2ccc(N3CCCCC3)cc12 [Example 32] ?
240

Consider the molecule shown here: N#C[C@@H]1CSCN1C(=O)CNC(=O)c1ccnc2ccc(N3CCCC[C@@H](F)C3)cc12 [Example 59] What is its recorded solubility?
40

Need solubility, item CC1(CS(C)(=O)=O)CN(c2ccc3nccc(C(=O)NCC(=O)N4CSC[C@H]4C#N)c3c2)C1 [Example 188]
990

----------
For each of the compounds below, state its pKd.
Just so you know, pKd here is -log10 of the concentration in molar units; reply with that number alone.

For hFAP (M39-A757) (Homo sapiens (Human)), provide pKd of CO[C@H]1CCN(c2ccc3nccc(C(=O)NCC(=O)N4CSC[C@H]4C#N)c3c2)C1 please.
10.96

Identify the measured pKd of N#C[C@@H]1CSCN1C(=O)CNC(=O)c1ccnc2ccc(N3CC4C(C3)C4(F)F)cc12 (some centres unmarked) for hFAP (M39-A757) (Homo sapiens (Human)).
10.17

I'm curious: which pKd was measured for N#C[C@@H]1CSCN1C(=O)CNC(=O)c1ccnc2ccc(N3CC4(CC4)C[C@@H]3CF)cc12 tested on hFAP (M39-A757) (Homo sapiens (Human))?
10.80

What reported pKd corresponds to C[C@H]1CCN(c2ccc3nccc(C(=O)NCC(=O)N4CSC[C@H]4C#N)c3c2)C1 on hFAP (M39-A757) (Homo sapiens (Human))?
10.35

What pKd appears in the records for this compound with hFAP (M39-A757) (Homo sapiens (Human))? N#C[C@@H]1CSCN1C(=O)CNC(=O)c1ccnc2cc(Cl)c(N3CCOCC3)cc12
Sequence (Q12884 39-757): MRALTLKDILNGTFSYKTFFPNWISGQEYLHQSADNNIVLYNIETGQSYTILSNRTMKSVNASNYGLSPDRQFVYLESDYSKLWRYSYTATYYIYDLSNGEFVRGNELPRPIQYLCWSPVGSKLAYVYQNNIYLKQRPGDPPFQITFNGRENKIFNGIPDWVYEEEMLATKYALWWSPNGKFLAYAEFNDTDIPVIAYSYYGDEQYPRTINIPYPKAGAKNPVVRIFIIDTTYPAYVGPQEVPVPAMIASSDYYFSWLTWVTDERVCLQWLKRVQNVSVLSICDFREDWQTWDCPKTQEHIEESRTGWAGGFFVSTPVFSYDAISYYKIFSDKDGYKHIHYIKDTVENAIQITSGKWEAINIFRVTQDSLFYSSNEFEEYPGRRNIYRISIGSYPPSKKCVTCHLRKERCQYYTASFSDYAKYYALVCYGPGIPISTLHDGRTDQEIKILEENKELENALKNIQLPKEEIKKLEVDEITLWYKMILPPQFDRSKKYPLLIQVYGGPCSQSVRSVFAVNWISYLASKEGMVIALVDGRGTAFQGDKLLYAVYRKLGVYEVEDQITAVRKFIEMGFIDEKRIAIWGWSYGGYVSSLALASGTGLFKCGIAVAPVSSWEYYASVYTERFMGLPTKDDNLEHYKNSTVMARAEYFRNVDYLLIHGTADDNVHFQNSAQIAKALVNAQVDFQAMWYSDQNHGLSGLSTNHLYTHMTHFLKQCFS
10.28

Identify the measured pKd of N#C[C@@H]1CSCN1C(=O)CNC(=O)c1ccnc2ccc(N3CC4(CCCC4(F)F)C3)cc12 for hFAP (M39-A757) (Homo sapiens (Human)).
10.21

Request body: readout pKd, system hFAP (M39-A757) (Homo sapiens (Human)), query Cc1noc(C)c1-c1ccc2nccc(C(=O)NCC(=O)N3CSC[C@H]3C#N)c2c1 . Return the value.
9.57

Give hFAP (M39-A757) (Homo sapiens (Human)) pKd for N#C[C@@H]1CSCN1C(=O)CNC(=O)c1ccnc2ccc(N3CC[C@@H](F)C3)cc12
10.36

Item: N#C[C@@H]1CSCN1C(=O)CNC(=O)c1ccnc2ccc(-c3ccnc(F)c3)cc12 Test system: hFAP (M39-A757) (Homo sapiens (Human)) Read-out: pKd Value: ?
10.03

State its pKd on hFAP (M39-A757) (Homo sapiens (Human)): N#C[C@@H]1CSCN1C(=O)CNC(=O)c1ccnc2ccc(N3C[C@@H](F)[C@H](F)C3)cc12
10.37

Query the reported pKd for hFAP (M39-A757) (Homo sapiens (Human)); item: CC1(C)COC12CN(c1ccc3nccc(C(=O)NCC(=O)N4CSC[C@H]4C#N)c3c1)C2
10.17

Recorded pKd for N#C[C@@H]1CSCN1C(=O)CNC(=O)c1ccnc2ccc(N3CCC4(CC4)C3)cc12 with hFAP (M39-A757) (Homo sapiens (Human)), please?
10.70

API: value(readout= pKd, system= hFAP (M39-A757) (Homo sapiens (Human)), query= N#C[C@@H]1CSCN1C(=O)CNC(=O)c1ccnc2ccc(N3C4CCC3COC4)cc12 )
11.06

Hello, I am looking for reported pKd with hFAP (M39-A757) (Homo sapiens (Human)) for N#C[C@@H]1CSCN1C(=O)CNC(=O)c1ccnc2ccc(N3CCOc4ccccc43)cc12 . Could you help?
9.42

Hi! What's the reported pKd for N#C[C@@H]1CSCN1C(=O)CNC(=O)c1ccnc2ccc(N3CC(F)C3)cc12 on hFAP (M39-A757) (Homo sapiens (Human))?
10.18

Test system hFAP (M39-A757) (Homo sapiens (Human)); read-out pKd; what value for N#C[C@@H]1CSCN1C(=O)CNC(=O)c1ccnc2ccc(N3CC4(CC(F)C4)C3)cc12 ?
10.80

Missing value: pKd, hFAP (M39-A757) (Homo sapiens (Human)), entry N#C[C@@H]1CSCN1C(=O)CNC(=O)c1ccnc2ccc(N3CC(COC(F)(F)F)C3)cc12 . Fill in?
9.74

What reported pKd corresponds to N#C[C@@H]1CSCN1C(=O)CNC(=O)c1ccnc2ccc(N3CCC4(CCOCC4)CC3)cc12 on hFAP (M39-A757) (Homo sapiens (Human))?
10.74

Param readout= pKd; system= hFAP (M39-A757) (Homo sapiens (Human)); entry= N#C[C@@H]1CSCN1C(=O)CNC(=O)c1ccnc2ccc(-n3cc4c(n3)CCCC4)cc12 ; returns value.
9.96

Request - read-out pKd | tested on hFAP (M39-A757) (Homo sapiens (Human)) | compound C[C@@H]1CCN(c2ccc3nccc(C(=O)NCC(=O)N4CSC[C@H]4C#N)c3c2)C1=O (single isomer, unassigned)
10.37
